molecular target: EGFR-TK (Homo sapiens)
Sequence (P00533 25-1210): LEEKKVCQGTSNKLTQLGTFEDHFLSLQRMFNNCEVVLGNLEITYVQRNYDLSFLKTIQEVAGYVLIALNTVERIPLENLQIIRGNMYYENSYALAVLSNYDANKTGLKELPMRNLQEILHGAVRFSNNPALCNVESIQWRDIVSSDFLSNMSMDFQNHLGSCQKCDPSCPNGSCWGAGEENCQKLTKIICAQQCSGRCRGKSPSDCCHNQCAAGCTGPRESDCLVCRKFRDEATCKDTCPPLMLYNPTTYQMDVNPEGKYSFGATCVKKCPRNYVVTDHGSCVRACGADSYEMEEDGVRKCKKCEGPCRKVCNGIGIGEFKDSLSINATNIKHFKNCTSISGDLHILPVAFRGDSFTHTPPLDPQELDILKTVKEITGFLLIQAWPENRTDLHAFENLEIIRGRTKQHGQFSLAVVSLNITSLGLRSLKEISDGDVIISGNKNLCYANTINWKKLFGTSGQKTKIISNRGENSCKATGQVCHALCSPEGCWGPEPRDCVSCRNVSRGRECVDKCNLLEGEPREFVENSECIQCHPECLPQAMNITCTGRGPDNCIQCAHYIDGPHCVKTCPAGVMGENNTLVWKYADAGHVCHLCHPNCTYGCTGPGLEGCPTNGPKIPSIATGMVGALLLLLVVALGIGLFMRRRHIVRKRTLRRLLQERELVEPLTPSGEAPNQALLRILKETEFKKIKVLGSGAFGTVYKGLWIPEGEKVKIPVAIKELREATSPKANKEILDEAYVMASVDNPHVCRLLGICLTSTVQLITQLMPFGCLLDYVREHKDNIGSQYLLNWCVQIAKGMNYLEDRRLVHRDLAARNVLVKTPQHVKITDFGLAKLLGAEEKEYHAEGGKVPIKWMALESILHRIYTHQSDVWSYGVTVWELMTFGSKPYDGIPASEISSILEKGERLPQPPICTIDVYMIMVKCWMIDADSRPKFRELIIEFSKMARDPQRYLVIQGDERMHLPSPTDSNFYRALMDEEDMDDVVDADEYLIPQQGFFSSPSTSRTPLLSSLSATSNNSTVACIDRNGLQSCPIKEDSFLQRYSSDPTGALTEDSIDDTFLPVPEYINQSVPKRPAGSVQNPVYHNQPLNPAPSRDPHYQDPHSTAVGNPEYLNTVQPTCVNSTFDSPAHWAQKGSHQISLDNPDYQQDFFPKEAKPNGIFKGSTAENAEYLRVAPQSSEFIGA
pIC50: −log10 of the molar value.
Listed next: entries and their corresponding pIC50.
property label: pIC50

> print(dat)
                                   compound                  target  value.reported
1  CC(=O)N1N=C(c2ccc(OCc3ccccc3)cc2)CC1c1cccc([N+](=O)[O-])c1 (centres unmarked) [Compound 9b]  EGFR-TK (Homo sapiens)            6.70
2  O=[N+]([O-])c1cccc(C2CC(c3ccc(OCc4ccccc4)cc3)=NN2)c1 (centres unmarked) [Compound 10b]  EGFR-TK (Homo sapiens)            6.80
3  c1ccc(COc2ccc(-c3nnc(SCc4ccccc4)o3)cc2)cc1 [Compound 5a]  EGFR-TK (Homo sapiens)            7.05
4  Brc1cccc(C2CC(c3ccc(OCc4ccccc4)cc3)=NN2)c1 (centres unmarked) [Compound 10a]  EGFR-TK (Homo sapiens)            6.15
5  COc1ccc(C2CC(c3ccc(OCc4ccccc4)cc3)=NN2)cc1OC (centres unmarked) [Compound 10c]  EGFR-TK (Homo sapiens)            6.57

====

molecular target: HER3 (Homo sapiens, UniProt P21860)
Sequence (P21860 20-1342): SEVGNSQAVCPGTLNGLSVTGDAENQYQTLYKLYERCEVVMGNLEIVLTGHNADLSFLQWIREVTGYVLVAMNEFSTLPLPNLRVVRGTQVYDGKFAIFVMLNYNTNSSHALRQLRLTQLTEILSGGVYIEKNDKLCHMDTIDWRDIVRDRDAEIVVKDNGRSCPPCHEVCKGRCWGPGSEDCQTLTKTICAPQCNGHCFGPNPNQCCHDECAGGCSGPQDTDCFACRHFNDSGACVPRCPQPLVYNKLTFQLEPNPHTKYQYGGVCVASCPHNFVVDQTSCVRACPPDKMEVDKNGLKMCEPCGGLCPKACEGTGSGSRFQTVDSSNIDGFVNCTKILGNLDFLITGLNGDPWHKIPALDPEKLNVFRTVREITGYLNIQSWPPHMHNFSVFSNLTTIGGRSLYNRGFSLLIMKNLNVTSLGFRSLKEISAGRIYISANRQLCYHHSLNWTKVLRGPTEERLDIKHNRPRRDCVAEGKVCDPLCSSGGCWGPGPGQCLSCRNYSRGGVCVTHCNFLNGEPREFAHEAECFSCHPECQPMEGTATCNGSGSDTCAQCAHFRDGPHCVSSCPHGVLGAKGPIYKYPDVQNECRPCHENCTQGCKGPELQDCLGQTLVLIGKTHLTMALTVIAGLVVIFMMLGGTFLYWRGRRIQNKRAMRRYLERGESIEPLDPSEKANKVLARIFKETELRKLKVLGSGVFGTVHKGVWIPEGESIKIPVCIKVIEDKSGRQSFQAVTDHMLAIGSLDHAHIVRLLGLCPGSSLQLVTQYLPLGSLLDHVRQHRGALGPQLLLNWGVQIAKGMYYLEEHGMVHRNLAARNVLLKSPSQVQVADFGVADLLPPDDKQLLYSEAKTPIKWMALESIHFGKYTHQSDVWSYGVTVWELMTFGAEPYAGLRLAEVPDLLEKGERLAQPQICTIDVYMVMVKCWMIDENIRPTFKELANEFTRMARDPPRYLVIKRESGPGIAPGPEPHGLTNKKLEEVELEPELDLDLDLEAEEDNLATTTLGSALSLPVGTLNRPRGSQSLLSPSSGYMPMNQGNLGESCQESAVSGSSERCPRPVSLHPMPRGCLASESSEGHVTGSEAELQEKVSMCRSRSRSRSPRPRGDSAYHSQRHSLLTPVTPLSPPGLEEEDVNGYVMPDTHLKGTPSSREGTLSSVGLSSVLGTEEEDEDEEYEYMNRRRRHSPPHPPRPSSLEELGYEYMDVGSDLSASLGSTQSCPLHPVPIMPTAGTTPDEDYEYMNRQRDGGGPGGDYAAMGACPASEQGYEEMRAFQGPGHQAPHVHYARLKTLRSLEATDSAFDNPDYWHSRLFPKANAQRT
pIC50: −log10 of the molar value.
property label: pIC50

> print(dat)
                               given.smiles  property.label  value.reported
1  c1ccc(COc2ccc(-c3nnc(SCc4ccccc4)o3)cc2)cc1           pIC50            6.74

====

test system: HePG-2; test: MTT anti-proliferative assay, HepG-2; details: Homo sapiens, HepG2, read-out: IC50 HePG-2
Listed next: entries and their corresponding IC50.
property label: IC50 (µM)

compound	property label	value reported
Clc1ccc(CSc2nnc(-c3ccc(OCc4ccccc4)cc3)o2)cc1	IC50	38.1
c1ccc(COc2ccc(-c3nnc(SC4CCCCCC4)o3)cc2)cc1	IC50	82.8
CCOC(=O)CSc1nnc(-c2ccc(OCc3ccccc3)cc2)o1	IC50	91.3
CC(=O)N1N=C(c2ccc(OCc3ccccc3)cc2)CC1c1cccc(Br)c1 (stereo not shown)	IC50	32.6
O=[N+]([O-])c1cccc(C2CC(c3ccc(OCc4ccccc4)cc3)=NN2)c1 (stereo not shown) [Compound 10b]	IC50	3.98
c1ccc(COc2ccc(-c3nnc(SC4CCCC4)o3)cc2)cc1	IC50	59.3
COc1cccc2c1C(=O)c1c(O)c3c(c(O)c1C2=O)C[C@@](O)(C(=O)CO)C[C@@H]3O[C@H]1C[C@H](N)[C@H](O)[C@H](C)O1 [DOX, Doxorubicin, reference compound]	IC50	4.5
COc1ccc(C2CC(c3ccc(OCc4ccccc4)cc3)=NN2)cc1OC (stereo not shown) [Compound 10c]	IC50	1.82
c1ccc(COc2ccc(-c3nnc(SCc4ccccc4)o3)cc2)cc1	IC50	35.6
CC(=O)N1N=C(c2ccc(OCc3ccccc3)cc2)CC1c1cccc([N+](=O)[O-])c1 (stereo not shown)	IC50	7.83
COc1ccc(C2CC(c3ccc(OCc4ccccc4)cc3)=NN2C(C)=O)cc1OC (stereo not shown)	IC50	12.2
Cc1ccc(CSc2nnc(-c3ccc(OCc4ccccc4)cc3)o2)cc1	IC50	71.4
Brc1cccc(C2CC(c3ccc(OCc4ccccc4)cc3)=NN2)c1 (stereo not shown) [Compound 10a]	IC50	6.32
